Recorded AUC HT.CspA by entry
system: HT-1080; test: Modulatory profiling: Alamar Blue viability, lethal compound cotreated with death modulator (EC50, AUC); type: cell-based; settings: HT-1080, modulator CspA
endpointName: AUC HT.CspA

>  <compound>
C(=N\Nc1nc2ccccc2s1)/c1ccccn1

>  <tgt>
HT-1080

>  <testResult>
0.05641

$$$$
>  <compound>
O=S1(=O)Nc2c(ccc3cccnc23)-c2ccccc21

>  <tgt>
HT-1080

>  <testResult>
0.01638

$$$$
>  <compound>
CC(C)(C)C1CCc2c(sc(NC(=O)CN3CCNCC3)c2C(N)=O)C1 (stereo not drawn)

>  <tgt>
HT-1080

>  <testResult>
0.004872

$$$$
>  <compound>
COc1c2c(cc3c1C(CC(=O)/C=C/c1ccccc1)[N+](C)(C)CC3)OCO2 (stereo not drawn)

>  <tgt>
HT-1080

>  <testResult>
−0.05791

$$$$
>  <compound>
CN(C)CCCOS(=O)(=O)c1ccc(N2CCC(c3ccc(Cl)cc3)=N2)cc1

>  <tgt>
HT-1080

>  <testResult>
−0.04697

$$$$
>  <compound>
CC[C@]1(O)C[C@@H]2CN(CCc3c([nH]c4ccccc34)[C@@](C(=O)OC)(c3cc4c(cc3OC)N(C)[C@H]3[C@@](O)(C(=O)OC)[C@H](OC(C)=O)[C@]5(CC)C=CCN6CC[C@]43[C@@H]65)C2)C1

>  <tgt>
HT-1080

>  <testResult>
−0.1335

$$$$
>  <compound>
O=C(CCl)N(c1ccc(Cl)cc1)c1c[nH]c2ccccc12

>  <tgt>
HT-1080

>  <testResult>
−0.009674

$$$$
>  <compound>
CC(C)C[C@H](NC(=O)[C@H](Cc1ccccc1)NC(=O)c1cnccn1)B(O)O

>  <tgt>
HT-1080

>  <testResult>
−0.2224

$$$$
>  <compound>
Nc1ccccc1NC(=O)c1ccc(CNC(=O)OCc2cccnc2)cc1

>  <tgt>
HT-1080

>  <testResult>
−0.1886

$$$$
>  <compound>
CC1(C)CC(=O)C2=C(C1)OC1=C(C(=O)CC(C)(C)C1)C2c1ccc(O)cc1O

>  <tgt>
HT-1080

>  <testResult>
−0.001347

$$$$
>  <compound>
CN(C)CC(O)Cn1c2ccc(Cl)cc2c2cc(Cl)ccc21 (stereo not drawn)

>  <tgt>
HT-1080

>  <testResult>
−0.02159

$$$$
>  <compound>
COC(=O)c1[nH]c2ccc(Br)cc2c1NC(=O)CN1CCN(C2CCCCC2)CC1

>  <tgt>
HT-1080

>  <testResult>
−0.03233

$$$$
>  <compound>
COC(=O)[C@@H]1Cc2c([nH]c3ccccc23)C(C)(C)N1C(=O)CCl

>  <tgt>
HT-1080

>  <testResult>
−0.03389

$$$$
>  <compound>
C[C@H]1CCC[C@]2(C)C[C@H]3OC(=O)[C@H](CN4CCCC4)[C@H]3C=C12

>  <tgt>
HT-1080

>  <testResult>
0.01161

$$$$
>  <compound>
COc1cc2c(c(OC)c1OC)-c1ccc(OC)c(=O)cc1[C@@H](NC(C)=O)CC2

>  <tgt>
HT-1080

>  <testResult>
−0.1209

$$$$
>  <compound>
CC[C@]1(O)C[C@H]2CN(CCc3c([nH]c4ccccc34)[C@@](C(=O)OC)(c3cc4c(cc3OC)N(C=O)[C@H]3[C@@](O)(C(=O)OC)[C@H](OC(C)=O)[C@]5(CC)C=CCN6CC[C@]43[C@@H]65)C2)C1

>  <tgt>
HT-1080

>  <testResult>
−0.1876

$$$$
>  <compound>
CCC(C(NNC(=O)c1ccc(C(F)(F)F)cc1)c1ccc(C(F)(F)F)cc1)[N+](=O)O (stereo not drawn)

>  <tgt>
HT-1080

>  <testResult>
−0.05842

$$$$
>  <compound>
O=P(Oc1ccccc1)(Oc1ccccc1)O[C@@H]1C=CS(=O)(=O)C1

>  <tgt>
HT-1080

>  <testResult>
−0.01586

$$$$
>  <compound>
CC(C(NNC(=O)c1ccc(C(F)(F)F)cc1)c1ccc(Br)cc1)[N+](=O)[O-] (stereo not drawn)

>  <tgt>
HT-1080

>  <testResult>
−0.05358

$$$$
>  <compound>
CC1CC2=C(CC1CNCCCN(C)C)C(C)(C)CCC2 (stereo not drawn)

>  <tgt>
HT-1080

>  <testResult>
−0.04225

$$$$
>  <compound>
CN(C)CCNC(=O)c1cc2c(s1)-c1ccc(Cl)cc1SC2

>  <tgt>
HT-1080

>  <testResult>
−0.007883

$$$$
>  <compound>
O=C(CCCCCN1C(=O)c2cccc3cccc(c23)C1=O)NO

>  <tgt>
HT-1080

>  <testResult>
−0.1413

$$$$
>  <compound>
CC(C)C1CC(CCNCc2ccc3c(c2)OCO3)(c2ccccc2)CCO1 (stereo not drawn)

>  <tgt>
HT-1080

>  <testResult>
0.00675

$$$$
>  <compound>
O=C(Oc1ccc(Cl)c2cccnc12)c1ccco1

>  <tgt>
HT-1080

>  <testResult>
0.06761

$$$$
>  <compound>
CCCS(=O)(=O)c1nnnn1-c1cccc(OC)c1

>  <tgt>
HT-1080

>  <testResult>
−0.007032

$$$$
>  <compound>
CC[C@@]1(O)C(=O)OCc2c1cc1n(c2=O)Cc2cc3ccccc3nc2-1

>  <tgt>
HT-1080

>  <testResult>
−0.1552

$$$$
>  <compound>
COc1ccc(-n2nnnc2S(=O)(=O)CC(=O)N2CCCCC2)cc1

>  <tgt>
HT-1080

>  <testResult>
0.002689

$$$$
>  <compound>
[O-][N+]1=c2ccc(Nc3ccccc3)cc2=NC12CCCCC2

>  <tgt>
HT-1080

>  <testResult>
−0.05469

$$$$
>  <compound>
COc1cccc(-n2nnnc2S(C)(=O)=O)c1

>  <tgt>
HT-1080

>  <testResult>
0.008389

$$$$
>  <compound>
COc1cc([C@@H]2c3cc4c(cc3[C@H](O)[C@H]3COC(=O)[C@H]23)OCO4)cc(OC)c1OC

>  <tgt>
HT-1080

>  <testResult>
−0.07592

$$$$
>  <compound>
CCOC(=O)[C@@H]1[C@@H](c2ccccc2)C(=O)CCN1NC(=O)c1ccccc1

>  <tgt>
HT-1080

>  <testResult>
−0.06906

$$$$
>  <compound>
COc1ccc(C(=O)C(CN2CCCC2)c2ccccc2)cc1 (stereo not drawn)

>  <tgt>
HT-1080

>  <testResult>
−0.01912

$$$$
>  <compound>
COC(C)(C)C#CC(=O)c1cccc2ccccc12

>  <tgt>
HT-1080

>  <testResult>
−0.02181

$$$$
>  <compound>
Cc1cccnc1Nc1nc(-c2ccccn2)cs1

>  <tgt>
HT-1080

>  <testResult>
0.06243

$$$$
>  <compound>
C=CCC1(Cl)C(=O)C(Cl)=C(n2ccnc2)C1(OC)OC (stereo not drawn)

>  <tgt>
HT-1080

>  <testResult>
−0.005998

$$$$
>  <compound>
O=S(=O)(c1ccc2c(c1)C(=NO)c1cc(S(=O)(=O)N3CCCCC3)ccc1-2)N1CCCCC1

>  <tgt>
HT-1080

>  <testResult>
0.01564

$$$$
